tested on: NCI-H460; assay: Cytotoxicity against human NCI-H460 after 48 hrs by MTT assay; type: functional, cell-based

smiles notation: C[C@H]1CO[C@@]2(O[C@H]3C[C@H]4[C@@H]5CC[C@H]6C[C@@H](O[C@@H]7O[C@H](CO)[C@H](O[C@@H]8O[C@H](CO)[C@@H](O)[C@H](O[C@@H]9OC[C@@H](O)[C@H](O)[C@H]9O)[C@H]8O[C@@H]8O[C@H](CO)[C@@H](O)[C@H](O)[C@H]8O)[C@H](O)[C@H]7O)CC[C@]6(C)[C@H]5CC[C@]4(C)[C@H]3[C@@H]2C)[C@@H](O[C@@H]2O[C@H](CO)[C@@H](O)[C@H](O)[C@H]2O)C1
Activity: Not toxic
--
smiles notation: C[C@@H]1CC[C@@]2(OC1)O[C@H]1[C@H](O)[C@H]3[C@@H]4CC[C@H]5C[C@@H](O[C@@H]6O[C@H](CO)[C@H](O[C@@H]7O[C@H](CO)[C@@H](O)[C@H](O[C@@H]8OC[C@@H](O)[C@H](O)[C@H]8O)[C@H]7O[C@@H]7O[C@H](CO)[C@@H](O)[C@H](O)[C@H]7O)[C@H](O)[C@H]6O)CC[C@]5(C)[C@H]4CC[C@]3(C)[C@H]1[C@@H]2C
Activity: Not toxic

Data origin: ChEMBL document CHEMBL1158036
